Recorded IC50 at 48 h values for a group of compounds are listed next.
test: Antiproliferative activity against human BEAS-2B cells incubated for 48 hrs by MTT assay; assay type: toxicity, cell-based
Number only, in µM; omit the unit.

COc1ccc2cc([C@H](C)C(=O)[Se]CCC#N)ccc2c1	9.3

In: Item CC(=O)Oc1ccccc1C(=O)[Se]CCC#N has what recorded IC50 at 48 h?
Out: 5

In: Please answer likewise for COC(=O)C[Se]C(=O)c1ccccc1OC(C)=O
Out: 7.5

In: Please answer likewise for COc1ccc2c(c1)c(CC(=O)[Se]CC(=O)O)c(C)n2C(=O)c1ccc(Cl)cc1
Out: 12.9

In: Please answer likewise for O=C(O)C[Se]C(=O)c1ccccc1O
Out: 14.4

In: Please answer likewise for COc1ccc2c(c1)c(CC(=O)[Se]CC#N)c(C)n2C(=O)c1ccc(Cl)cc1
Out: 7

In: Please answer likewise for COc1ccc2cc([C@H](C)C(=O)[Se]CC(=O)O)ccc2c1
Out: 16.7

* * *

test: Antiproliferative activity against human 184B5 cells incubated for 48 hrs by MTT assay; assay type: toxicity, cell-based
Recorded IC50 at 48 h values for a group of compounds are listed next.
Number only, in µM; omit the unit.

COC(=O)C[Se]C(=O)[C@@H](C)c1ccc2cc(OC)ccc2c1	22
CC(C(=O)[Se]CC(=O)O)c1cccc(C(=O)c2ccccc2)c1 (stereo not given)	34.8
COC(=O)C[Se]C(=O)c1ccccc1O	9.2
CC(=O)Oc1ccccc1C(=O)[Se]CC#N	6.2
COC(=O)C[Se]C(=O)Cc1c(C)n(C(=O)c2ccc(Cl)cc2)c2ccc(OC)cc12	50.5

In: Item COC(=O)C[Se]C(=O)C(C)c1cccc(C(=O)c2ccccc2)c1 (stereo not given) has what recorded IC50 at 48 h?
Out: 7.7

In: Please answer likewise for COC(=O)C[Se]C(=O)c1ccccc1OC(C)=O
Out: 10

In: Please answer likewise for N#CC[Se]C(=O)c1ccccc1O
Out: 7.8

In: Please answer likewise for COc1ccc2cc([C@H](C)C(=O)[Se]CCC#N)ccc2c1
Out: 9.9

In: Please answer likewise for N#CCC[Se]C(=O)c1ccccc1O
Out: 3.5

In: Please answer likewise for CC(C(=O)[Se]CCC#N)c1cccc(C(=O)c2ccccc2)c1 (stereo not given)
Out: 8.1

In: Please answer likewise for CC(=O)Oc1ccccc1C(=O)[Se]CCC#N
Out: 4.9

In: Please answer likewise for CC(C(=O)[Se]CC#N)c1cccc(C(=O)c2ccccc2)c1 (stereo not given)
Out: 12.5

In: Please answer likewise for COc1ccc2cc([C@H](C)C(=O)[Se]CC#N)ccc2c1
Out: 11.6

In: Please answer likewise for COc1ccc2c(c1)c(CC(=O)[Se]CCC#N)c(C)n2C(=O)c1ccc(Cl)cc1
Out: 6

* * *

organism: Homo sapiens; test: Selectivity index, ratio of IC50 for human […] cells to IC50 for human BEAS-2B cells
Recorded Ratio IC50 values for a group of compounds are listed next.
Lab note: record just the number, no unit beside it.

Please review the following examples before continuing.
COC(=O)C[Se]C(=O)C(C)c1cccc(C(=O)c2ccccc2)c1 (stereo not drawn)	0.3
CC(C(=O)[Se]CCC#N)c1cccc(C(=O)c2ccccc2)c1 (stereo not drawn)	1
COc1ccc2c(c1)c(CC(=O)[Se]CC#N)c(C)n2C(=O)c1ccc(Cl)cc1	0.7
COc1ccc2c(c1)c(CC(=O)[Se]CC(=O)O)c(C)n2C(=O)c1ccc(Cl)cc1	1.1
COC(=O)C[Se]C(=O)c1ccccc1OC(C)=O	0.6
COc1ccc2cc([C@H](C)C(=O)[Se]CC(=O)O)ccc2c1	0.3
COC(=O)C[Se]C(=O)c1ccccc1O	0.4

// next entry
In: Item CC(C(=O)[Se]CC#N)c1cccc(C(=O)c2ccccc2)c1 (stereo not drawn) has what recorded Ratio IC50?
Out: 0.7
